Recorded values, source patent US9695154B2.

measured target: recombinant human SAE enzyme (Homo sapiens, UniProt Q9UBT2)
Sequence (Q9UBT2 whole entry): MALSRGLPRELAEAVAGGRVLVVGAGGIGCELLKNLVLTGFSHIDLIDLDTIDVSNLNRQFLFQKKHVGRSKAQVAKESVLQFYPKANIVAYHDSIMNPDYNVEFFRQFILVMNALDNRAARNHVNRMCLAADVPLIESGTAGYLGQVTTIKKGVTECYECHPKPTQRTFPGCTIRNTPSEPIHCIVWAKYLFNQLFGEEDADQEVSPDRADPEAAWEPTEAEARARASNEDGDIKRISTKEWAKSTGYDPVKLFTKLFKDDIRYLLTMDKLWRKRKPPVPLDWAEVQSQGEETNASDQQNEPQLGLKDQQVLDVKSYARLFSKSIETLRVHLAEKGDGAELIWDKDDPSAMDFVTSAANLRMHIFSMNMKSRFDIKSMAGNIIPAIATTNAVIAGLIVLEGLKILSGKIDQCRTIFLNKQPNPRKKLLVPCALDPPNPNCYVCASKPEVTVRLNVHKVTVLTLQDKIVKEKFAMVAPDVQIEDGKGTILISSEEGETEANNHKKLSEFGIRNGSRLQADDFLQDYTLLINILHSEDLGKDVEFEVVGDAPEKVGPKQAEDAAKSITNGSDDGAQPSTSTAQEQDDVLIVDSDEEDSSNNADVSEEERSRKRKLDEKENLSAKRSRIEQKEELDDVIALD
Sequence (Q9UBE0 whole entry partner): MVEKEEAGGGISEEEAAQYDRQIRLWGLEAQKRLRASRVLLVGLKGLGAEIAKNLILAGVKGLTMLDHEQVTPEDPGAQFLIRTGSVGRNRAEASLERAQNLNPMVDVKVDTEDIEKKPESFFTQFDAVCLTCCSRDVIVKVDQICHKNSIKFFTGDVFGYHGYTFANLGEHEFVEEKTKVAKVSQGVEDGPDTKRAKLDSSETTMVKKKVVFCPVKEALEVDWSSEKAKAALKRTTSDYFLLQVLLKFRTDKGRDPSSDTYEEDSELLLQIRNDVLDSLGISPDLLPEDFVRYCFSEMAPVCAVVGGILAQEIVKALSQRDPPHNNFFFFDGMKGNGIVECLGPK
assay explanation: SAE HTRF Enzyme Assay
test parameters: class symbols A-C
Let's look at some compounds and their measured IC50.

Q: Recorded IC50 of "C#Cc1cc(Cn2ccc(C(=O)c3cncnc3N[C@@H]3C[C@H](COS(N)(=O)=O)[C@@H](O)C3)n2)ccc1F" , please.
Result: < 0.01 µM

Q: Recorded IC50 of "COc1cccc(Cn2ccc(C(=O)c3cncnc3N[C@@H]3C[C@H](COS(N)(=O)=O)[C@@H](O)[C@@H]3F)c2)n1" , please.
Result: < 0.01 µM

Q: Recorded IC50 of CC(c1cccc(Br)c1)n1ccc(C(=O)c2cncnc2N[C@@H]2C[C@H](COS(N)(=O)=O)[C@@H](O)[C@@H]2F)c1 (single isomer, unassigned) [Compound I-192] , please.
Result: < 0.01 µM

Q: Recorded IC50 of "NS(=O)(=O)OC[C@H]1C[C@@H](Nc2ncncc2C(=O)c2ccn(Cc3ccc(F)cc3C(F)(F)F)n2)[C@H](O)[C@@H]1O" , please.
Result: < 0.01 µM

Q: Recorded IC50 of "NS(=O)(=O)OC[C@H]1C[C@@H](Nc2ncncc2C(=O)c2ccn(CC3CC3)n2)[C@H](O)[C@@H]1O" , please.
Result: 0.01 to 0.1 µM

Please look at the following compound next.
Q: Recorded IC50 of "NS(=O)(=O)OC[C@H]1C[C@@H](Nc2ncncc2C(=O)c2ccn(Cc3cccc(OC(F)(F)F)c3)n2)C[C@@H]1O" , please.
Result: < 0.01 µM
